biological target: Fes (UniProt P07332); experiment: phosphorylation enrichment, bacterial display (enrichment ratio); higher = better substrate or ligand; peptides without Tyr show the background;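 note: 11-residue human phosphosite peptides and single-mutation variants displayed on the E. coli surface, counted by deep sequencing, each peptide's frequency after selection divided by its frequency in the unselected input library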;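 note: frequency after pTyr selection over input frequency; kinase dosed for 20-30% of maximal phosphorylation in three min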
Sequence (P07332 whole entry, looked up): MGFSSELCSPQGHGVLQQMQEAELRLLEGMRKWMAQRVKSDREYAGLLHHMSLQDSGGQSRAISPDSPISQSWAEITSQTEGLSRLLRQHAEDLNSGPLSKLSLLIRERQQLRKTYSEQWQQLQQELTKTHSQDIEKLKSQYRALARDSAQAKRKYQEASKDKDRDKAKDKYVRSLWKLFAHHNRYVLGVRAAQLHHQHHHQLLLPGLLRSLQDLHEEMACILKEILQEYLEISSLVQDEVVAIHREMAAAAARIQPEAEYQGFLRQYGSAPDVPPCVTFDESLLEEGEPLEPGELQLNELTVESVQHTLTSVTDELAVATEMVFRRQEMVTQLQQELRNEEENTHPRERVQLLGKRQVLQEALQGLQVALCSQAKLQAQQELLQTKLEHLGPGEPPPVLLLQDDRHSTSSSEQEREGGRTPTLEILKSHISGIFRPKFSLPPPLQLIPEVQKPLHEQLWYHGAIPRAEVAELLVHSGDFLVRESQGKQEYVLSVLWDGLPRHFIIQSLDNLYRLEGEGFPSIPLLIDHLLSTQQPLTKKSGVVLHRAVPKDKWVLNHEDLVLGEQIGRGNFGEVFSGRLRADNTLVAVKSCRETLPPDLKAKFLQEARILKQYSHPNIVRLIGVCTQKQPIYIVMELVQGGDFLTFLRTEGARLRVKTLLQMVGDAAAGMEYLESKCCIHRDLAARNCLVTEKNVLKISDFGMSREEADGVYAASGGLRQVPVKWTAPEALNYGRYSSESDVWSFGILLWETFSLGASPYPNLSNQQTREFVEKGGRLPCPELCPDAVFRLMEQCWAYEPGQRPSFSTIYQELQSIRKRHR
Binary call on phosphorylation enrichment: Criterion met from 0.8 upward, Criterion not met beneath that.

Look over these answered cases.
>  <sequence.entry>
GPQGVYSNKLV [PTPN14_Y506]

>  <category>
Criterion not met

$$$$
>  <sequence.entry>
NNHGNYIVRLG [ETFDH_Y172]

>  <category>
Criterion not met

$$$$
>  <sequence.entry>
IYRASYYRRGD [LTK_Y676]

>  <category>
Criterion not met

$$$$
>  <sequence.entry>
GPGGDYAAMGA [ERBB3_Y1276]

>  <category>
Criterion not met

$$$$
>  <sequence.entry>
MPPHIYAITDT [MYH9_Y151]

>  <category>
Criterion met

$$$$

Could you please find out whether YETSHYPASPD [CTNND2_Y1217] has phosphorylation enrichment that meets 0.8 or exceeds it?
Criterion not met
